B1: CD2-associated protein, residues 271 to 331; numbered along this chain, Q9Y5K6 (parent)
chain: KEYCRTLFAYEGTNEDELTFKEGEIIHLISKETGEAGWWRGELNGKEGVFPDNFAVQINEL

Variants of: B1
Test: abundance fitness (aPCA) (normalised: wild type 0, dead -1); higher = more abundant; growth selection in yeast, the domain comes from the species named
Conditions: Homo sapiens
variants and their reported abundance fitness
Would you mind answering with just the numeric figure?

IEYCRTLFAYEGTNEDELTFKEGEIIHLISKETGEAGWWRGELNGKEGVFPDNFAVQINEL [K1I] : -0.245

Given the entry KEYCRTLFAYEGTNELELTFKEGEIIHLISKETGEAGWWRGELNGKEGVFPDNFAVQINEL [D16L] , report its measured abundance fitness.
-0.091

Given the entry KEYCRTLKAYEGTNEDELTFKEGEIIHLISKETGEAGWWRGELNGKEGVFPDNFAVQINEL [F8K] , report its measured abundance fitness.
0.128

Given the entry KEYCRTLFAYETTNEDELTFKEGEIIHLISKETGEAGWWRGELNGKEGVFPDNFAVQINEL [G12T] , report its measured abundance fitness.
-0.425

Given the entry KEYCRTLFAYEGTNEDELTFKEGEIIHLISKETGEAGWWRGELNGKEGVFPDNAAVQINEL [F54A] , report its measured abundance fitness.
0.162
